This collection of values is drawn from ChEMBL document CHEMBL3885861.

Catalogue of KIDNEY_R readings, one per entry.
Species on record: Rattus norvegicus
assay.overview: Open TG-GATES - Regimen: Single
Type: toxicity, organism-based, Sprague-Dawley
Parameters: regimen Single, gender Male, age 6 weeks
assay.setup: in vivo, po, 0 mg/kg, 6 h, tissue Kidney, route gavage, dose level Control
Numeric answer only, unit g assumed.

A selection of reference data follows.
{"molecule": "OCCN1CCN(CCCN2c3ccccc3Sc3ccc(C(F)(F)F)cc32)CC1", "recorded.number": 0.9}
{"molecule": "CCOC(=O)C(C)(C)Oc1ccc(Cl)cc1 [CLOFIBRATE]", "recorded.number": 1}
{"molecule": "C[C@H]1C(=O)O[C@@H]2CCN3CC=C(COC(=O)[C@](C)(O)[C@]1(C)O)[C@H]23", "recorded.number": 0.9}

### Prompt Item under review: C[C@H]1O[C@H](O[C@H]2[C@H](O)[C@@H](O)[C@@H](O[C@H]3[C@H](O)[C@@H](O)C(O)O[C@@H]3CO)O[C@@H]2CO)[C@H](O)[C@@H](O)[C@@H]1N[C@H]1C=C(CO)[C@@H](O)[C@H](O)[C@H]1O (some centres undefined) . Reported KIDNEY_R?
### Response 0.9
